# System: SK-MEL-5
# METHOD: NCI tumour cell line growth inhibition, 48 h
The source made the active and inactive calls. Cut-off read from the data, not from the text of the source: active = GI50 up to about 1.1 µM and inactive = higher.
// allowed return values: active, inactive

Please state the recorded outcome for this compound: COc1ccc(-c2c(C#N)c(N)n(C3OCC(OC(C)=O)C(OC(C)=O)C3OC(C)=O)c(=S)c2C#N)cc1 (centres undefined)
inactive

Please state the recorded outcome for this compound: `O=c1cc(-c2nc3ccccc3[nH]2)[nH]c2nc(-c3nc4ccccc4[nH]3)cc(-c3ccc(Cl)cc3)c12`
inactive

Please state the recorded outcome for this compound: Cc1ccccc1C(C#N)C(=O)C(=O)Nc1nc([N+](=O)[O-])cs1 (centres undefined)
inactive

Please state the recorded outcome for this compound: CCCC1(N)CC(OC)OC(C)C1O (centres undefined)
inactive

Please state the recorded outcome for this compound: `CC(C)Oc1c(C2(c3ccccc3)SCCCS2)c(=O)c1=O`
inactive

Please state the recorded outcome for this compound: `O=C1Nc2ccc(Cl)c(I)c2C1=O`
inactive

Please state the recorded outcome for this compound: `O=C(C[C@@H]1NCCC[C@H]1O)Cn1cnc2cc(Br)c(Cl)cc2c1=O`
active

Please state the recorded outcome for this compound: `CCOC(=O)c1cnc2oc3ccc(O)cc3c2c1-c1ccccc1`
inactive

Please state the recorded outcome for this compound: `Cc1cc(NS(=O)(=O)c2ccc(NC(=O)c3cccc4c(Nc5ccc(S(=O)(=O)N=C(N)N)cc5)c5ccccc5nc34)cc2)no1`
inactive

Please state the recorded outcome for this compound: `O=[N+]([O-])/C(C(Cl)=C(Cl)Cl)=C(/Sc1ccccc1)N1CCOCC1`
inactive

Please state the recorded outcome for this compound: `O=C(CSc1nc2ccccc2c(=O)n1-c1ccccc1)N/N=C1\C(=O)Nc2ccc(F)cc21`
inactive

Please state the recorded outcome for this compound: `COc1cc(OC)cc(OCc2ccc3nc(-c4ccccc4)c(Cl)nc3c2)c1`
inactive

Please state the recorded outcome for this compound: `CCc1nnc2sc(-c3ccc(-c4ccccc4[N+](=O)[O-])o3)nn12`
inactive

Please state the recorded outcome for this compound: `C[C@@H]1C[C@@]2(O[C@@H]2C)C(=O)O[C@@H]2CCN3CC=C(COC(=O)[C@]1(C)O)[C@H]23`
inactive

Please state the recorded outcome for this compound: `Cc1ccc(Nc2nc(=O)c3c([nH]c4ccccc43)s2)cc1`
inactive

Please state the recorded outcome for this compound: `CSc1scc2c1/C(=N/NC(N)=O)CCC2`
inactive

Please state the recorded outcome for this compound: CCOC(=O)C(C(C)=O)C1CC=CC1 (centres undefined)
inactive

Please state the recorded outcome for this compound: COc1ccc(N[S+]([O-])c2ccc(Cl)cc2)cc1 (centres undefined)
inactive

Please state the recorded outcome for this compound: CCC12C[N+]3([O-])CCc4c([nH]c5ccccc45)C(C(=O)OC)(c4cc5c(cc4OC)N(C)C4C(O)(C(=O)OC)C(OC(C)=O)C6(CC)C=CCN7CCC54C76)CC(C3)C1O2 (centres undefined)
active

====

Assign GI50 to each entry below.
# Tested on: PC-3
# METHOD: NCI tumour cell line growth inhibition, 48 h
Activity calls are given as the source filed them. No stated cut-off is given here; in the data, active = GI50 up to about 1.1 µM and inactive = higher.

Provide measured GI50 on PC-3 for NC12CCC(CC1=O)C2 (stereo not drawn) please.
> 100 µM (inactive)

Provide measured GI50 on PC-3 for `CCc1nnc2sc(-c3ccc(-c4ccccc4[N+](=O)[O-])o3)nn12` please.
42.9 µM (inactive)

Provide measured GI50 on PC-3 for C=C(C)[C@@H]1CC[C@]2(COC(C)=O)CC[C@]3(C)[C@H](CC[C@@H]4[C@@]5(C)CC[C@H](OC(C)=O)C(C)(C)[C@@H]5CC[C@]43C)[C@@H]12 [BETULIN DIACETATE] please.
> 50 µM (inactive)
